target: UniProtKB P60842; assay: Inhibition of helicase activity of human recombinant N-terminal His6-tagged eIF4A expressed in Escherichia coli BL21 CodonPlus cells using Cy3-labeled RNA strand and unlabeled DNA strand by native PAGE analysis

- STRUCTURE: "CCCCc1ccc(-c2ccc(-c3cc(C(=O)O)c4cc(Br)ccc4n3)o2)cc1"
  IC50: "28.7 µM"
- STRUCTURE: "CCCCc1ccc(-c2ccc(-c3cc(C(=O)O)c4cc([N+](=O)[O-])ccc4n3)o2)cc1"
  IC50: "6.58 µM"

###

target: Eukaryotic initiation factor 4A-I (Homo sapiens, UniProt P60842, R110L); assay: Inhibition of human recombinant N-terminal His6-tagged eIF4A R110L mutant expressed in Escherichia coli BL21 CodonPlus cells using ATP and yeast RNA as substrate preincubated with enzyme for 20 mins followed by susbtrate addition and measured after 4 hrs by Malachite green ATPase assay

- STRUCTURE: "CCCCc1ccc(-c2ccc(-c3cc(C(=O)O)c4cc([N+](=O)[O-])ccc4n3)o2)cc1"
  TESTED_SYSTEM: "Eukaryotic initiation factor 4A-I (Homo sapiens, UniProt P60842, R110L)"
  IC50: "> 50 µM"
